Ref: the supplement of paper PMC12455559

assay: PET hydrolysis, aromatic products released after 48 h (umol product/mg enzyme); higher = more PET depolymerization activity; settings: substrate: cryPow; 60 °C; pH 8.5
reported-property: PET hydrolysis

-- ask Need PET hydrolysis, item EEPASGYQRGPAPTTSSIESSRGPFSTSQVSISGLSANGFGGADVYYPTDTSQGTFGAVAISPGYTARKSSMAWLASRLASQGFVVINIDTNTTSDQPASRGRQLLAALDQVTKDSRVANRIDPTRLAVVGHSMGGGGALEASRSRPSLQAAIPLTPWNTTKSFSGNQVPTLVVGAERDTVASVRSHAEPFYRSLPSAPGKAYLELAGASHFAPNTSNTTIAKHSIAWLKLFVDNDERYRQFVCPGPTSDRAVSDYQNTCSSFTP [DP053]
-- reply < 3

-- ask So what does the record say about PET hydrolysis for ASPYERGPNPTTAILEASSGPYSVSSVSVSSLVTGFGGGRIYYPTTTADGTFGGIAISPGFTARWSSLEWLGPRIASHGFVVIGIETNSIYDQPTSRGQQLLAALDYLVNSSSARTRVDRNRLAVAGHSMGGGGTLYAANARPSLQAAVPIAPWNTDKTWGGVQVPTMIIGGESDSVAPVATHAIPFYTSIPASSEKAYLELNNASHFFPQTVNTTMAKSMVSWLKRYVDDDTRYDPWLCPAPSGLSISDYRDTCPA [DP084] ?
-- reply < 3

---

test: PET hydrolysis, aromatic products released after 48 h (umol product/mg enzyme); higher = more PET depolymerization activity; conditions: substrate: cryPow; 40 °C; pH 8.5
reported-property: PET hydrolysis
Enter the number alone.

-- ask I'd like to know its PET hydrolysis. The sequence in question is ADNPYQRGPDPTPALVASVNGPFATASVSVPAGYGFGGGMIYYPTDTSQGTFGGIAISPGYTALFSAELAWMGPWLASHGFVVIGIETNNRNDFDEARGTQLLAALDYLTQQSPVRNRVDPNRLAVAGHSMGGGGALNAAIRRPSLKAAVGLAPFSPSSNLANDRVPTMVFSGQQDTVVTPSYVTGLYNSLPSTTQSAYLEIAGGDHGFPVGRPNQVMIRTMLPFVKIFVDYDTRYSPFLCPLSDTSGVVTYRSTCPLTPPGLPTTPPTTPPTTVPTSPPTGGPTTPPTTPSQPGGACTATYRTVNSWPGGFQGEVTVTAGNSAINGWTVRWTLDSGQAITQVWNGEVSTSGSTVSVRNAPYNGSLPPSGSTTFGFLSSGSPSSPSLTCTSP [DP059]
-- reply 32.5

---

experiment: purified protein yield per well (BCA); higher = higher soluble expression
Please provide measured purified protein yield per well for the entries that follow.
Supply the numeric figure in µg, leaving out any unit text.

-- ask Sample GSLAHIVMVDAYKPTKGSGASQTNPYARGPNPTAASLEASAGPFTVRSFTVSRPSGYGAGTVYYPTNAGGTVGAIAIVPGYTARQSSIKWWGPRLASHGFVVITIDTNSTFDYPSSRSSQQMAALRQVASLNGDSSSPIYGKVDTARMGVMGHSMGGGASLRSAANNPSLKAAIPQAPWDSQTNFSSVTVPTLIFACENDSIAPVNSHALPIYDSMSRNAKQFLEINGGSHSCANSGNSNQALIGKKGVAWMKRFMDNDTRYSTFACENPNSTAVSDFRTANCSLEGSGGSGAHIVMVDAYKPTK [TEP004] — what was its purified protein yield per well?
-- reply 77.2

-- ask Consider the sequence shown here: MPPPPPPPPPVQTVTVEPGYGFGGGTIYYPQESTGRLPVVAAVPGFTETQEAVAWYGPLLARRGNIVITIDTISPTNAPKTRADQALAAIDYVVTQSAVSDIADASRTAVMGHSMGGGASLFAALKRPTLKAIVPLAPWARTTDFSGVAVPTLIVGCENDGIAAVGTYAEPFYESIPATTPKAYLEMAGGNHYCTNSEDPVIAGYVSAWTDRFLKGDTTASSRLCPPSPVGPISEYRSNCPY [TEP189] What is its recorded purified protein yield per well?
-- reply 153

---

test: purified protein yield per well (BCA); higher = higher soluble expression
reported-property: purified protein yield per well

-- ask Consider the sequence shown here: ASLSIGGEYQVLTYTDFPDVPEFGDATIYYPLETPGTVGGVAIAPGFTERQSHIEWWGPRLASHGFAVLVLDTNERRAMPDARGDALLAAVEVLRRESAREGSPLFGRVATDKMAIMGHSMGGGGALLAANEHSDQIQAAIPFTPWEPQAVFQDITVPTLVLAGSVDRLARVDNHAWRHYQSIPESTPKAYLEVGGGNHYIADTERGTDLETI [TEP137] What is its recorded purified protein yield per well?
-- reply < 25 µg

-- ask // returns reported purified protein yield per well for input AQSPYERGPAPTETSVRASTGPFQYAQVSVPGAGFGSGTIYYPTDTGQGTFGGVAVSPGFLSPEILIAWLGPKLASNGFVVITISTNNPGDQPDSRGEQLLAALNYLATQSPAAVRQRLDPGRLSVIGHSMGGGGALRAADSRPDLQAAIPLGGWHTNKNWSNIRVPTMVIGAQNDFIAPNDQHSQRFYTSITQAPEKAYLRPVGTGHVNVGTGTPVVGKFVLSWLKRFVDDDTRYDQFLCPTPSGSDLVEYHSTCPHT [DP014]
-- reply < 25 µg

-- ask Entry QTPQAPTAASLNATSGPLSVSTQSVSSLSARGFGGGTVYYPTTAGRYGAVAISPGFTATQSSVAWLGRRLASHGLVVITINTNSTLDQPASRATQLMAALTYVTSASGTTVQSRVDPQRLAVAGHSMGGGGALIAARDNPTLKASLPLTPWNTTTNFSGIRVPTLIVGADGDTVASVTAHARPFYASLPSNTFKAYAELNSASHFTPNSANTPIGRYGVTWLKRFVDNDSRYSPFLCGAEHQAYATAQVFDRYQQNCPY [ESM188] : reported purified protein yield per well = ?
-- reply < 25 µg

-- ask Look at this sequence and give its reported purified protein yield per well. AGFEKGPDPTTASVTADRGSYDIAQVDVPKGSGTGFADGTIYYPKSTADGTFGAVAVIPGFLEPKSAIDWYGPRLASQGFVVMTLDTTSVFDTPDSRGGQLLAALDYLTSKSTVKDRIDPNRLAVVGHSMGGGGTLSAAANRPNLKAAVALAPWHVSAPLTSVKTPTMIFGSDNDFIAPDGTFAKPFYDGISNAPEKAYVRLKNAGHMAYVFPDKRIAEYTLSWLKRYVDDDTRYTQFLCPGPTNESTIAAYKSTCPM [DP093]
-- reply 225 µg

-- ask For ADNPYERGPAPTRASIEAPRGPYAVSQTSVSSLLVSGFGGGTIYYPTSTSDGTFGAVVVTPGFTATESSMAWLGPRLASQGFVVFTIDTLTTLDQPDSRGRQMLAALDYLTERSSARTRIDGTRLGVIGHSMGGGGTLEAAKSRPSLKAAIPLTPWNLDKTWPEVTTPTLVVGADGDTVAPVATHAKPFYSTLPSTTDRAYLELNNATHFAPNISNTTIAKYSVSWLKRFIDDDTRYEQFLCPLPEPDRDIEEYRGTCPLGG [TEP162] , what is its reported purified protein yield per well?
-- reply < 25 µg

-- ask Look up purified protein yield per well: ADNPYERGPDPTESSIEASRGPFAVSQTTVSSLAVTGFGGGTIYYPTDTSQGTFGAVAISPGYTADQSSIAWIGPRLASQGFVVFTIDTITRYDQPASRGDQLLAALDYLTQRSSVRGRIDSSRLGVAGHSMGGGGTLEAAEERPSLQAAVPLAPWNLQKNFSGVRVPTFIIGGESDTVAPVATHSEPFYTSLPSTLDKAYMELNNASHFFPNTPNTTMAKYMISWFKRFIDDDTRYDQFLCPNPSGLAIEEYRSTCPY [TEP089]
-- reply 105 µg

---

assay: PET hydrolysis, aromatic products released after 48 h (umol product/mg enzyme); higher = more PET depolymerization activity; details: substrate: aFilm; 60 °C; pH 6.5
Assignment: determine reported PET hydrolysis for the given sequences.
I only need the number, thanks.

-- ask Find the recorded PET hydrolysis belonging to ADNPYQRGPDPTPASVAAVNGPFATASVSVPAGYGFGGGMIYYPTDTSQGTFGGIAISPGYTALFSAELAWMGPWLASHGFVVIGIETNSRNDFDEARGTQLLAALDYLTQQSPVRTRVDPNRLAVSGHSMGGGGALNAAIRRPSLKAAVGLAPFLPSSNLANDRVPTMVFAGQQDTVVSPSYVTNLYNSLPATTESAYLEIAGGDHGFPVGRPNQVMIRTMLPFVKIFLDNDTRYSQFLCPLMDSTGVVTYRSTCPLLPPGLPTTPPTSTSSNPTVGPTTPSTTAPTTTPAPGGACTATYRTTNSWPGGFQGEVTITAGSSAINGWTVRWTLGSGQTISQVWNGEVSITGSTVSVRNAPYNGSLPASGSTTFGFLGGGSPSSPSLTCTSP [TEP165] and report it.
-- reply 1.5

-- ask Can you share its PET hydrolysis? I mean this sequence: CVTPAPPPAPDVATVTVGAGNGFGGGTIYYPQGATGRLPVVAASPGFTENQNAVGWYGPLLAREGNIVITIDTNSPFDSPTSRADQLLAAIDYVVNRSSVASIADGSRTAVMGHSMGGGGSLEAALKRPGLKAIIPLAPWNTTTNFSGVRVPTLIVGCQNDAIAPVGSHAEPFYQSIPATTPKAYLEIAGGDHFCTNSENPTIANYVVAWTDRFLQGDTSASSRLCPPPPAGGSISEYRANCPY [ESM050]
-- reply 15
